Reported Percent Effect values for the following compounds.
TARGET DESC: Tyrosyl-tRNA synthetase, putative (Trypanosoma cruzi (strain CL Brener)) (UniProt Q4DSP6)
Sequence (Q4DSP6 as listed by the source): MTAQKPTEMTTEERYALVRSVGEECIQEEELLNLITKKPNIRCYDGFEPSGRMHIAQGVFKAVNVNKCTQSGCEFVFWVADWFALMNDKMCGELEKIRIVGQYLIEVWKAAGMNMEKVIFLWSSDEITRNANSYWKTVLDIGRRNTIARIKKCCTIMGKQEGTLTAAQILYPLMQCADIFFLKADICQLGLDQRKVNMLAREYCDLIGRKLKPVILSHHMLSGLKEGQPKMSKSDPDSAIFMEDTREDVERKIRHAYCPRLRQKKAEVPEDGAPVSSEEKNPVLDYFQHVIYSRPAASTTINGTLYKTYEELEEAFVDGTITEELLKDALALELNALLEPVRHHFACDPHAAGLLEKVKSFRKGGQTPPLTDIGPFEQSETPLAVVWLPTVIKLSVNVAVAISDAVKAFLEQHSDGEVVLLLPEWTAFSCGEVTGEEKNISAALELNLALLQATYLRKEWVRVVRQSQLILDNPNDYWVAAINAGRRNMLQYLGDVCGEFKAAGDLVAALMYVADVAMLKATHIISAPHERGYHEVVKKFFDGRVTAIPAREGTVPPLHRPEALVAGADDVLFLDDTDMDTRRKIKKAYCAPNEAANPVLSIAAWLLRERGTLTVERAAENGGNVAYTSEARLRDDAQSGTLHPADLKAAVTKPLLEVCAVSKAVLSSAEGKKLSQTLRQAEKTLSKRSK
PROCEDURE DETAILS: Trypanosoma cruzi tyrosyl tRNA synthetase (TcYRS) SOP
Format: functional
Design: scale not given: direction of the effect not stated beside the values
COND: 30 µM
Field: numeric (%). Do not append units.

> print(dat)
                                   compound                               target.desc  measured.quantity  quantity.unit  observed.value
1  COc1c(CNC(c2nccn2C)C(C)C)c(C)nn1C (configuration not stated)  Tyrosyl-tRNA synthetase, putative (Trypanosoma cruzi (strain CL Brener)) (UniProt Q4DSP6)     Percent Effect              %               0
2             COc1ccc2c(c1)CCN(CCC(=O)O)CC2  Tyrosyl-tRNA synthetase, putative (Trypanosoma cruzi (strain CL Brener)) (UniProt Q4DSP6)     Percent Effect              %            17.1
3           Fc1ccc(CN2CCCN(Cc3cscn3)CC2)cc1  Tyrosyl-tRNA synthetase, putative (Trypanosoma cruzi (strain CL Brener)) (UniProt Q4DSP6)     Percent Effect              %            25.9
4  CCn1nnc2c1C(COC)CN(C(=O)COc1ccccc1)C2 (configuration not stated)  Tyrosyl-tRNA synthetase, putative (Trypanosoma cruzi (strain CL Brener)) (UniProt Q4DSP6)     Percent Effect              %            3.66
5         COc1cc(C)sc1C(=O)N1CC(c2cccnc2)C1  Tyrosyl-tRNA synthetase, putative (Trypanosoma cruzi (strain CL Brener)) (UniProt Q4DSP6)     Percent Effect              %            9.76
6  O=C(C1CCOCC1)N1CCC2(CC1)CC(Oc1ccccc1)CO2 (configuration not stated)  Tyrosyl-tRNA synthetase, putative (Trypanosoma cruzi (strain CL Brener)) (UniProt Q4DSP6)     Percent Effect              %            16.1
7  Cc1cnn(CC2CCCN2Cc2nccn2C)c1 (configuration not stated)  Tyrosyl-tRNA synthetase, putative (Trypanosoma cruzi (strain CL Brener)) (UniProt Q4DSP6)     Percent Effect              %            5.06
8  CCc1nc(CN(C)C2CCN(CCn3cc(C#N)cn3)C2)no1 (configuration not stated)  Tyrosyl-tRNA synthetase, putative (Trypanosoma cruzi (strain CL Brener)) (UniProt Q4DSP6)     Percent Effect              %            6.17

Continue with the compound presented below.
So, NC(=O)c1cnn2c1NCC(CNCCCOc1ccccc1F)C2 (configuration not stated) ? Its Percent Effect was 12.2
